Reference source: patent US20230416239A1

# Target of assay: UniProtKB P05112
# Sequence (P05112 25-153): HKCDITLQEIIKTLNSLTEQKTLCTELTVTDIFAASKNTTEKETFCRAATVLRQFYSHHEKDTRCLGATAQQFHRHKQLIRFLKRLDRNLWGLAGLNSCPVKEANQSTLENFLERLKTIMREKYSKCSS
pIC50: −log10 of the molar value.
Quantity measured: pIC50

Below are worked cases with known answers.
>  <Compound>
O=S(=O)(c1ccccc1)n1cc(CN(CCCCNCc2cccnc2F)Cc2cn(S(=O)(=O)c3ccccc3)c3ccccc23)c2ccccc21

>  <pIC50>
5.28

$$$$
>  <Compound>
CCCN(CCOCCN(Cc1cccnc1F)Cc1cn(S(=O)(=O)c2ccccc2)c2ccccc12)C1CCCCC1 [Compound 97]

>  <pIC50>
5.18

$$$$
>  <Compound>
O=S(=O)(c1ccccc1)n1cc(CN(CCCCNC2CCCCCC2)Cc2cccnc2F)c2ccccc21

>  <pIC50>
5.22

$$$$
>  <Compound>
O=S(=O)(c1ccccc1)n1cc(CN(CCCCCNCc2cccnc2F)Cc2cccnc2F)c2ccccc21

>  <pIC50>
5.11

$$$$
>  <Compound>
CN(CCCCN(Cc1cccnc1F)Cc1cn(S(=O)(=O)c2ccccc2)c2ccccc12)C1CCCCCC1

>  <pIC50>
5.24

$$$$

(I) Fc1cc(CN(Cc2cn(-c3cccc(C(F)(F)F)c3)c3ccccc23)CC2CCCN(C3CCCCC3)C2)ccn1 (stereo not drawn)
(II) CCCCN(CCOCCN(Cc1cccnc1F)Cc1cn(S(=O)(=O)c2ccccc2)c2ccccc12)C1CCCC1
**Q:** Which value of pIC50 is smaller, the one for I or the one for II ? Please indicate the selected item by its label.
**A:** II
(II: 5.02, I: 5.32)

---

# Target of assay: IL-13 (Homo sapiens, UniProt P35225)
# Sequence (P35225 25-146, species assumed): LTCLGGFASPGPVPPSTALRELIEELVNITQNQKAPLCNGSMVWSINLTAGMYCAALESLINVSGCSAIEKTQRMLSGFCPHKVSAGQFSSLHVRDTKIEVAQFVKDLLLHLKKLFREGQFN
# Assay: Immunoassay binding test, IL-13
# Condition label: 100 μM
Quantity measured: BINDING IL13 % Neutra at 100 μM (%)

(P) CCCCN(CCOCCN(Cc1cccnc1F)Cc1cn(S(=O)(=O)c2ccccc2)c2ccccc12)C1CCCC1 [Compound 109]
(Q) CN(CCOCCN(Cc1cccnc1F)Cc1cn(S(=O)(=O)c2ccccc2)c2ccccc12)C1CCCC1 [Compound 105]
**Q:** Please tell me which of the two, P or Q , has the higher reported BINDING IL13 % Neutra at 100 μM value. // output: label of the selected item
**A:** Q

---

# Target of assay: IL-13 (Homo sapiens, UniProt P35225)
# Assay: Immunoassay binding test, IL-13
# Condition label: 100 μM
Quantity measured: BINDING IL13 % Neutra at 100 μM (%)

>  <Molecule>
O=S(=O)(c1ccccc1)n1cc(CN(CCOCCNC2CCCCC2)Cc2cccnc2F)c2ccccc21

>  <BINDING IL13 % Neutra at 100 μM (%)>
83.9

$$$$
>  <Molecule>
CN(CCCCCN(Cc1ccncc1)Cc1cn(-c2cccc(C(F)(F)F)c2)c2ccccc12)C1CCCCC1

>  <BINDING IL13 % Neutra at 100 μM (%)>
94.8

$$$$
>  <Molecule>
CCN(CCOCCN(Cc1cccnc1F)Cc1cn(S(=O)(=O)c2ccccc2)c2ccccc12)C1CCCCC1 [Compound 100]

>  <BINDING IL13 % Neutra at 100 μM (%)>
83.0

$$$$
>  <Molecule>
O=S(=O)(c1ccccc1)n1cc(CN(CCCNC2CCCCC2)Cc2cccnc2)c2ccccc21

>  <BINDING IL13 % Neutra at 100 μM (%)>
86.2

$$$$
